# Tested on: Mus musculus
# experiment: […] activity in ip dosed Swiss albino mouse assessed as inhibition of DOI-induced head twitches administered 20 mins before DOI challenge measured for 20 mins
# Type: functional
# testContext: read-out: ID50 (the source's name)
endpoint: ED50 (mg/kg)
Please reply with the bare figure in mg/kg and do not write the unit itself.

Guide cases for ED50, answers given:
>  <moleculeSmiles>
Cl.O=S(=O)(NCCCCN1CCN(c2cccc(Cl)c2)CC1)c1cnc2ccc(Cl)cc2c1

>  <targetOfAssay>
Mus musculus

>  <unitLabel>
mg/kg

>  <endpointResult>
4.75

$$$$
>  <moleculeSmiles>
Cl.O=S(=O)(c1cnc2ccccc2c1)N1CCC(CCN2CCN(c3ccc(Cl)cc3)CC2)CC1

>  <targetOfAssay>
Mus musculus

>  <unitLabel>
mg/kg

>  <endpointResult>
5.12

$$$$

Bench note: what ED50 did "O=C(c1ccc(F)cc1)C1CCN(CCn2c(=O)[nH]c3ccccc3c2=O)CC1" show?
0.12
